# System: α-SMA mRNA in NRK-49F cells
# assay.comment: Inhibition of α-SMA mRNA in TGF-β-activated NRK-49F fibroblasts
# Type: cell-based, rat
# conditions: Rattus norvegicus, NRK-49F, compound 0.5 mM
# reported inhibition at 500 µM; entries follow
Numeric answer plus unit only.

{"compound": "CCCCCc1cc(CC(=O)O)ccc1O", "system.name": "α-SMA mRNA in NRK-49F cells", "inhibition at 500 µM": "92%"}

So for CCCCCc1cccc(CC(=O)[O-])c1.[Na+] [Compound I, Sodium Salt of 3-pentylphenylacetic acid] , the logged inhibition at 500 µM turned out to be 85%

---

# reported α-SMA NRK-49F cells % inhibition; entries follow
# Tested on: α-SMA mRNA in NRK-49F cells
# assay.comment: Inhibition of α-SMA mRNA in TGF-β-activated NRK-49F fibroblasts
# Format: cell-based, rat
# conditions: compound 0.25 mM
Give just the number in %; leave the unit off.

Worked examples, 3 molecules total:
{"molecule": "CCCCCc1cccc(C(C)C(=O)[O-])c1.[Na+] (stereo not shown) [Compound VIII]", "result.unit": "%", "α-SMA NRK-49F cells % inhibition": 86}
{"molecule": "CCCCCc1cccc(CC(=O)[O-])c1O.[Na+] [Compound XIX]", "result.unit": "%", "α-SMA NRK-49F cells % inhibition": 100}
{"molecule": "CCCCCc1cccc(CCC(=O)[O-])c1.[Na+] [Compound VII]", "result.unit": "%", "α-SMA NRK-49F cells % inhibition": 100}

In the following, a different molecule is considered.
So for CCCCCc1cccc(C(=O)C(=O)[O-])c1.[Na+] [Compound XVIII] , the logged α-SMA NRK-49F cells % inhibition turned out to be 100

---

# System: collagen 1 mRNA in NHDF cells
# assay.comment: Inhibition of collagen mRNA in TGF-β-activated NHDF fibroblasts
# Assay type: cell-based
# conditions: Homo sapiens, compound 0.5 mM
measured.attribute: inhibition at 500 µM (%)
Give just the number in %; leave the unit off.

{"molecule": "CCCCCc1cccc(CC(=O)[O-])c1.[Na+] [Compound I, Sodium Salt of 3-pentylphenylacetic acid]", "result.unit": "%", "inhibition at 500 µM": 65}

So for CCCCCc1cc(CC(=O)O)ccc1O [Compound XIV] , the logged inhibition at 500 µM turned out to be 26

So for CCCCCc1ccc(O)c(CC(=O)O)c1 [Compound V] , the logged inhibition at 500 µM turned out to be 100

So for CCCCCc1cc(O)cc(CC(=O)O)c1 [Compound II] , the logged inhibition at 500 µM turned out to be 40

---

# Test system: α-SMA mRNA in NRK-49F cells
# assay.comment: Inhibition of α-SMA mRNA in TGF-β-activated NRK-49F fibroblasts
# Format: cell-based, rat
# conditions: Rattus norvegicus, NRK-49F, compound 0.5 mM
# reported inhibition at 500 µM; entries follow
Give just the number in %; leave the unit off.

Worked examples, 3 molecules total:
{"molecule": "CCCCCc1ccc(O)c(CC(=O)O)c1 [Compound V]", "system.name": "α-SMA mRNA in NRK-49F cells", "inhibition at 500 µM (%)": 100}
{"molecule": "CCC/C=C/c1cccc(CC(=O)O)c1 [Compound IV]", "system.name": "α-SMA mRNA in NRK-49F cells", "inhibition at 500 µM (%)": 64}
{"molecule": "CCCCCc1cc(CC(=O)O)ccc1F [Compound XV]", "system.name": "α-SMA mRNA in NRK-49F cells", "inhibition at 500 µM (%)": 100}

In the following, a different molecule is considered.
# CCCCCc1cc(O)cc(CC(=O)O)c1 [Compound II] with α-SMA mRNA in NRK-49F cells: inhibition at 500 µM is 66
